- Tgt: DNA repair protein RAD52 homolog (Homo sapiens) (UniProt P43351)
- Sequence (P43351 whole entry, looked up): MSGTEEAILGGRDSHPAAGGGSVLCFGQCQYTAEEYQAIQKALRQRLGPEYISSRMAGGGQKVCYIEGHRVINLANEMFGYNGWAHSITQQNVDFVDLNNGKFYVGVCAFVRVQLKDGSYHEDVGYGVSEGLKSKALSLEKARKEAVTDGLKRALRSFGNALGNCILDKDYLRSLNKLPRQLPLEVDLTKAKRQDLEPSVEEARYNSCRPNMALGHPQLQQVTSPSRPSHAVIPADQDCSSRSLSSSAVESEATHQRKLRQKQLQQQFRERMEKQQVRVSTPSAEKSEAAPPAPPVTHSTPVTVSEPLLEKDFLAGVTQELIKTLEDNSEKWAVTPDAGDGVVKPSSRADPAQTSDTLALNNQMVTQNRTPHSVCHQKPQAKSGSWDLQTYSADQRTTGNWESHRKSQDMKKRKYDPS
- Method notes: RAD52 DNA annealing inhibitors, primary screen, biochemical, FRET, single point, set 2 (AID 651710)
- Particulars: recombinant RAD52 DNA annealing, FRET fluorescence; at 18.7 µM; stronger effect = higher value
About 1,600 (0.44%) of roughly 360,000 compounds were called active. The sample holds actives, similar compounds and a random draw of the others, so the mix is not that of the screen.

Mol: CC(=O)c1cccc(-c2cnc3c(NC=O)cc(-c4ccc(N(C)C)cc4)cn23)c1
inhibition [%]: -47.5
--
Mol: Cc1cc(C)n(-c2nnc(N3CCN(c4ccccc4)CC3)nn2)n1
inhibition [%]: -6.3
--
Mol: O=C(Nc1ccccc1F)N[C@@H]1CC[C@H](CC(=O)N2CCCCC2)O[C@H]1CO
inhibition [%]: -11.7
--
Mol: CN1CCC(CN)(N2CCN(c3ccccc3)CC2)CC1
inhibition [%]: 83.9
--
Mol: O=C(C[C@H]1CC[C@H]2[C@@H](COC[C@H](O)CN2Cc2nccs2)O1)NCc1ccc(Oc2ccccc2)cc1
inhibition [%]: 9.32

* * *

- Tgt: DNA repair protein RAD52 homolog (Homo sapiens) (UniProt P43351)
- Method notes: RAD52 DNA annealing inhibitors, primary screen, biochemical, FRET, single point, set 2 (AID 651710)
- Particulars: recombinant RAD52 DNA annealing, FRET fluorescence; at 18.7 µM; stronger effect = higher value
Among all 360,000 compounds or so, about 1,600 (0.44%) were called active. The sample as a whole holds a higher share of actives than the screen did.
Assay endpoint: inhibition (%)

Mol: CN(C)C(=O)c1cccc(-c2cnc3c(NC=O)cc(-c4ccc(F)cc4)cn23)c1
Experimental result: -55.7
--
Mol: CC(=O)c1cccc(-c2cnc3c(NC=O)cc(-c4ccc(N5CCN(C)CC5)cc4)cn23)c1
Experimental result: 73.8
--
Mol: CC(=O)Nc1cc(-c2cccc(CO)c2)cn2c(-c3cccc(C(F)(F)F)c3)cnc12
Experimental result: -17.3
--
Mol: CN(C)CCNC(=O)c1cccc(-c2cnc3c(NC=O)cc(-c4cccc(C(F)(F)F)c4)cn23)c1
Experimental result: 67
--
Mol: CC(=O)Nc1cc(-c2ccc(N3CCN(C)CC3)cc2)cn2c(-c3cccc(C(=O)N(C)C)c3)cnc12
Experimental result: 79.7
--
Mol: CN(C)C(=O)c1cccc(-c2cnc3c(NC=O)cc(-c4ccc(C(=O)N5CCOCC5)cc4)cn23)c1
Experimental result: -29
--
Mol: Cc1ccc(-c2ccc3c(c2)O[C@H](CN(C)C(=O)Nc2ccc(C(F)(F)F)cc2)[C@@H](C)CN([C@H](C)CO)S3(=O)=O)cc1
Experimental result: -8.45
--
Mol: O=C(C[C@H]1CC[C@H](NC(=O)Nc2ccccc2F)[C@@H](CO)O1)NCc1ccccc1
Experimental result: -8.56

* * *

Listing: inhibition of selected molecules
- Tgt: DNA repair protein RAD52 homolog (Homo sapiens) (UniProt P43351)
- Method notes: RAD52 DNA annealing inhibitors, primary screen, biochemical, FRET, single point, set 2 (AID 651710)
- Particulars: recombinant RAD52 DNA annealing, FRET fluorescence; at 18.7 µM; stronger effect = higher value
About 1,600 (0.44%) of roughly 360,000 compounds were called active. The sample as a whole holds a higher share of actives than the screen did.

Mol: C[C@H](CO)N1C[C@H](C)[C@@H](CN(C)Cc2ccc(-c3ccccc3)cc2)Oc2ccc(NC(=O)CCCN(C)C)cc2CC1=O
inhibition / %: 94
//
Mol: C[C@H]1CN([C@@H](C)CO)C(=O)Cc2cc(NC(=O)CCCN(C)C)ccc2O[C@@H]1CN(C)Cc1ccc(-c2ccccc2)cc1
inhibition / %: 48.7
//
Mol: COc1ccc(S(=O)(=O)N2CC[C@@H]3[C@@H](CO)Nc4ccc(C#Cc5cccnc5)cc4[C@@H]32)cc1
inhibition / %: 0.847
//
Mol: CO[C@H]1CN(C)C(=O)c2ccc(NC(=O)Nc3ccc(F)cc3)cc2OC[C@@H](C)NC[C@H]1C
inhibition / %: -5.12

* * *

- Tgt: DNA repair protein RAD52 homolog (Homo sapiens) (UniProt P43351)
- Method notes: RAD52 DNA annealing inhibitors, primary screen, biochemical, FRET, single point, set 2 (AID 651710)
- Particulars: recombinant RAD52 DNA annealing, FRET fluorescence; at 18.7 µM
Among all 360,000 compounds or so, about 1,600 (0.44%) were called active.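 Rule for the calls: active = every replicate showing at least 50% inhibition; inconclusive = mean inhibition at least 50% but not in every replicate; inactive = the rest.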 The sample as a whole holds a higher share of actives than the screen did.
Classes used: True for active, False for inactive

Compound: COc1ccc(S(=O)(=O)N(C)CC(=O)N2CCCC2)cc1
Assigned label: False

Compound: C[C@@H]1CN([C@@H](C)CO)C(=O)c2cc(-c3cccnc3)cnc2O[C@H]1CN(C)Cc1ccc(-c2ccccc2)cc1
Assigned label: False

Compound: COc1ccc(NC(=O)C2Cc3c(-c4cccc(NC(C)=O)c4)ccnc3O2)cc1OC (centres undefined)
Assigned label: False

Compound: COc1ccc(NC(=O)Nc2ccc3c(c2)[C@@H]2C[C@H](CC(=O)N4CCCCC4)O[C@H](CO)[C@@H]2O3)cc1
Assigned label: False

Compound: Cc1noc(C)c1S(=O)(=O)N(C)C[C@H]1Oc2ccc(NC(=O)CCN3CCOCC3)cc2CC(=O)N([C@H](C)CO)C[C@H]1C
Assigned label: False

Compound: CO[C@H]1CN(C)C(=O)c2ccc(NC(=O)c3cnccn3)cc2OC[C@H](C)N(C)C[C@@H]1C
Assigned label: False

Compound: Clc1ccccc1Nc1nc(NCc2cccs2)nc2ccsc12
Assigned label: False

Compound: COc1ccc(NC(=S)SC)cc1OC
Assigned label: False

Compound: COc1ccc2sc(N(CCCN(C)C)C(=O)c3ccc(S(=O)(=O)N(C)C4CCCCC4)cc3)nc2c1
Assigned label: True

* * *

- Tgt: DNA repair protein RAD52 homolog (Homo sapiens)
- Method notes: RAD52 DNA annealing inhibitors, primary screen, biochemical, FRET, single point, set 2 (AID 651710)
- Particulars: recombinant RAD52 DNA annealing, FRET fluorescence; at 18.7 µM; stronger effect = higher value
About 1,600 (0.44%) of roughly 360,000 compounds were called active. What follows is part of a selection rich in actives, with near analogues and random picks from the rest.
Assay endpoint: inhibition (%)

Compound: CC(C)NC(=O)Nc1ccc2c(c1)C(=O)N([C@@H](C)CO)C[C@H](C)[C@@H](CN(C)S(C)(=O)=O)O2
Unit abbrev: %
Experimental result: -11
//
Compound: COCCNc1nc(Nc2ccccc2Cl)c2sc(-c3ccccc3)cc2n1
Unit abbrev: %
Experimental result: -21.9
//
Compound: CN(Cc1ccccc1F)c1cc2c(c3c1ccn3C)C1CCC2O1 (centres undefined)
Unit abbrev: %
Experimental result: 61
//
Compound: COc1ccc(-c2ccc3c(c2)[C@@H]2[C@@H](CCN2C(=O)NC2CCCC2)[C@@H](CO)N3C)cc1
Unit abbrev: %
Experimental result: -19
//
Compound: O=C(Cc1ccccc1)N1CC[C@@H]2[C@H](CO)Nc3ccc(-c4ccccc4)cc3[C@@H]21
Unit abbrev: %
Experimental result: -10.7
//
Compound: COc1ccc(NC(=O)N(C)C[C@H]2Oc3ccc(NS(=O)(=O)c4ccc(F)cc4)cc3C(=O)N([C@@H](C)CO)C[C@@H]2C)cc1
Unit abbrev: %
Experimental result: 15.8
//
Compound: COCCNc1nc(NCc2ccc(NC(C)=O)cc2)c2sccc2n1
Unit abbrev: %
Experimental result: -6.25
//
Compound: CCCNC(=O)N(C)C[C@@H]1Oc2ncc(C#CC(C)C)cc2C(=O)N([C@H](C)CO)C[C@H]1C
Unit abbrev: %
Experimental result: -2.25
//
Compound: CC(=O)Nc1ccc(CNc2nc(NCCN(C)C)nc3cc(-c4ccccc4)sc23)cc1
Unit abbrev: %
Experimental result: 98.5

* * *

- Tgt: DNA repair protein RAD52 homolog (Homo sapiens) (UniProt P43351)
- Method notes: RAD52 DNA annealing inhibitors, primary screen, biochemical, FRET, single point, set 2 (AID 651710)
- Particulars: recombinant RAD52 DNA annealing, FRET fluorescence; at 18.7 µM; stronger effect = higher value
The whole screen tested about 360,000 compounds, of which about 1,600 (0.44%) were called active. What follows is part of a selection rich in actives, with near analogues and random picks from the rest.
Listing: inhibition of selected molecules

Mol: N#Cc1ccc(-c2ccc([C@@H]3[C@H]4CNC[C@@H]3N4Cc3cc(F)ccc3F)cc2)cc1
inhibition (%): 69
//
Mol: O=C(NCCN1CCOCC1)c1ccc2c(c1)N(Cc1cccc(Cl)c1)C(=O)c1ccccc1S2(=O)=O
inhibition (%): -15.4
//
Mol: CCS(=O)(=O)N1CCC2(CC1)CN[C@H](CO)c1c2c2ccc(OC)cc2n1C
inhibition (%): 5.49
//
Mol: Cc1noc(C)c1S(=O)(=O)Nc1ccc2c(c1)CC(=O)N([C@@H](C)CO)C[C@H](C)[C@H](CN(C)C(=O)Nc1ccccc1)O2
inhibition (%): -0.934
//
Mol: C#Cc1cc(N2CCN(C(=O)c3ccoc3)CC2)n2nc(-c3cccc(Cl)c3)cc2n1
inhibition (%): 10.8
//
Mol: CCN(CC)CCCNC(=O)c1cc2c(=O)[nH]c3ccc(C)cc3c2s1
inhibition (%): 54.3
//
Mol: O=C(C[C@H]1CC[C@H](NC(=O)c2ccc(F)cc2)[C@@H](CO)O1)NCCc1ccncc1
inhibition (%): 2.72
//
Mol: COc1ccc2[nH]c3c(C)c4cc[n+](C)cc4c(C)c3c2c1
inhibition (%): 94.3
